Values from ChEMBL document CHEMBL4014333

TEST_METHOD_NOTES: Binding affinity to biotin-labeled DNA hairpin (unknown origin) by SPR analysis
Activity calls are given as the source filed them. No rule for the calls is given here.
QUANTITY_NAME: Activity

Before answering, review these 10 worked examples.
COc1ccc2cc3[n+](cc2c1NCCCN(C)C)CCc1cc2c(cc1-3)OCO2	Active
COc1ccc2cc3[n+](cc2c1NCCCN1CCOCC1)CCc1cc2c(cc1-3)OCO2	Active
CCN(CC)CCNC(=O)COc1ccc2oc3c(NCCN(CC)CC)c4ccccc4[n+](C)c3c2c1	Active
CN1CCC(COc2ccc3oc4c(NCC(=O)NCC(=O)NC(CCCNC(=N)N)C(=O)NC(CC(=O)O)C(=O)O)c5ccccc5nc4c3c2)CC1 (stereo unspecified)	Active
CN(C)CCCNc1c2ccccc2[n+](C)c2c1oc1ccc(OCC[N+]3(C)CCCCC3)cc12	Active
CCN(CC)CCCNc1c2ccccc2[n+](C)c2c1[nH]c1ccccc12	Active
C[n+]1c2ccccc2c(NCCN2CCCCC2)c2oc3ccc(OCC[N+]4(C)CCOCC4)cc3c21	Active
C[n+]1c2ccccc2c(NCCCN2CCOCC2)c2oc3ccc(OCC4CC[N+](C)(C)CC4)cc3c21	Active
C[n+]1c2ccccc2c(NCCCN2CCOCC2)c2oc3ccc(OCCC[N+](C)(C)C)cc3c21	Active
C[n+]1c2ccccc2c(NCCCN2CCOCC2)c2oc3ccc(OCC[N+](C)(C)C)cc3c21	Active

Problem: Given the molecule CN(C)CCCNC(=O)COc1ccc2oc3c(NCCCN(C)C)c4ccccc4[n+](C)c3c2c1 , what is its reported Activity?
Solution: Active

Problem: Given the molecule CCN(CC)CCCNc1c2ccccc2[n+](C)c2c1oc1ccc(OCC[N+](C)(C)C)cc12 , what is its reported Activity?
Solution: Active

Problem: Given the molecule CN(C)CCNc1c2ccccc2[n+](C)c2c1oc1ccccc12 , what is its reported Activity?
Solution: Active

Problem: Given the molecule CN(C)CCCNc1c2ccccc2[n+](C)c2c1oc1ccc(OCC[N+]3(C)CCOCC3)cc12 , what is its reported Activity?
Solution: Active

Problem: Given the molecule C[n+]1c2ccccc2c(NCC(=O)NCC(=O)NC(CCCNC(=N)N)C(=O)O)c2oc3ccccc3c21 (stereo unspecified) , what is its reported Activity?
Solution: Active
